Where do the numbers come from? From patent US11472838B2.

molecular target: FXIII (Homo sapiens (Human), UniProt P00488); test: Inhibitory activity against FXIII (isopeptidase assay), Tables 3 and 4; assay type: biochemical; settings: isopeptidase assay, Table 3; read-out: IC50 [nM] FXIII
Sequence (P00488 39-732): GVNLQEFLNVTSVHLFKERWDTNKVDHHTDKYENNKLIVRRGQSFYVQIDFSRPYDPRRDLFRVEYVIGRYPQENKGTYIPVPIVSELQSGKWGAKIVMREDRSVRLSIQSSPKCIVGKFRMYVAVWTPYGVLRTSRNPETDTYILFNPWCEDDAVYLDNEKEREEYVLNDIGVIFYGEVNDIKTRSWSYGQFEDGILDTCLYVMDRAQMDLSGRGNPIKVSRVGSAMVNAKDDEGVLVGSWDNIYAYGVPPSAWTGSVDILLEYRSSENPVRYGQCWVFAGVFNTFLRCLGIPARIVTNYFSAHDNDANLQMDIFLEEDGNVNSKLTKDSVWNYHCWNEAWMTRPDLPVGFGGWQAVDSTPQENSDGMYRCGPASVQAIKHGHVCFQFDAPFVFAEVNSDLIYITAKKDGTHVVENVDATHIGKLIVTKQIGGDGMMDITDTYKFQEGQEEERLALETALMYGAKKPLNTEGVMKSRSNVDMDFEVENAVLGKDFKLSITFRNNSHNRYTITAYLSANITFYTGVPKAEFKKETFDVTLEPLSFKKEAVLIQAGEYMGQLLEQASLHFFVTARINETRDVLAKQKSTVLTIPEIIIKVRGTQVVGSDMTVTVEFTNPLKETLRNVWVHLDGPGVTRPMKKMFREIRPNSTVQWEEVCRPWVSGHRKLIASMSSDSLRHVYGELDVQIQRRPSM
*1 amine or outer side, *2 acyl side, *3 side chain or, on linkers, in order; H or OH if unused. Where a SMILES comes first, the peptide text is derived from it. [ ]: non-standard residue; d: D form. The star is where a group is joined. Benzoyl(3-COOH,5-NO2) = O=C(O)c1cc(C(=O)*)cc([N+](=O)[O-])c1; Pro(3R,4S-CMe2) = CC1(C)[C@@H]2[C@@H](C(=O)O)NC[C@@H]21; Benzoyl(2-COOH-4,5-Cl2) = O=C(O)c1cc(Cl)c(Cl)cc1C(=O)*; Pro(3S,4R-(CH2)3) = O=C(O)[C@H]1NC[C@@H]2CCC[C@@H]21; Nle(5E-ene,6-CO2Et) = CCOC(=O)/C=C/CC[C@H](N)C(=O)O; Isonicotinoyl(3-COOH) = O=C(O)c1cnccc1C(=O)*; X1 = COC(=O)/C=C/CC[C@H](N[*:1])C(=O)[*:2]; X8 = NC(=O)/C=C/CC[C@H](N[*:1])C(=O)[*:2]; X3 = O=C(c1cnc(O)c([N+](=O)[O-])c1)*; Pro(4-oxo) = O=C1CN[C@H](C(=O)O)C1; Chg = N[C@H](C(=O)O)C1CCCCC1; Tle = CC(C)(C)[C@H](N)C(=O)O; X4 = O=C(O)c1cncc(C(=O)*)c1; αMeP = C[C@@]1(C(=O)O)CCCN1; X6 = Cc1cccc(C)c1OCC(C)N*; X7 = O=C(O)c1nccnc1C(=O)*
VALUE_TYPE: IC50 (nM)
# number only, unit nM dropped from output

Challenge: Quick check: IC50 of COC(=O)/C=C/CC[C@H](NC(=O)c1cncc(C(=O)O)c1)C(=O)N[C@H](C(=O)N1CCC[C@H]1C(=O)N[C@H](C(=O)N[C@H](C(N)=O)C1CCCCC1)C1CCCCC1)C(C)(C)C [Compound 27] (X4-[X1][Tle]P[Chg][Chg]-NH2) ?
Response given: 27

Challenge: Quick check: IC50 of COC(=O)/C=C/CC[C@H](NC(=O)c1cc(Cl)c(Cl)cc1C(=O)O)C(=O)N[C@H](C(=O)N1C[C@H]2[C@@H]([C@H]1C(=O)N[C@H](C(=O)N[C@H](C(N)=O)C1CCCCC1)C1CCCCC1)C2(C)C)C(C)(C)C [Compound 29] ({Benzoyl(2-COOH-4,5-Cl2)}-[X1][Tle][Pro(3R,4S-CMe2)][Chg][Chg]-NH2) ?
Response given: 24

Challenge: Quick check: IC50 of CC(C)(C)[C@H](NC(=O)[C@H](CC/C=C/C(N)=O)NC(=O)c1ccncc1C(=O)O)C(=O)N1CC(=O)C[C@H]1C(=O)N[C@H](C(=O)N[C@H](C(N)=O)C1CCCCC1)C1CCCCC1 [15a/b] ({Isonicotinoyl(3-COOH)}-[X8][Tle][Pro(4-oxo)][Chg][Chg]-NH2) ?
Response given: 69

Challenge: Quick check: IC50 of COC(=O)/C=C/CC[C@H](NC(=O)c1cc(C(=O)O)cc([N+](=O)[O-])c1)C(=O)N[C@H](C(=O)N1CC(=O)C[C@H]1C(=O)N[C@@H](CC(C)C)C(=O)N1CCC[C@@]1(C)C(=O)NC(C)COc1c(C)cccc1C)C(C)(C)C (some centres unmarked) [Compound 30] ({Benzoyl(3-COOH,5-NO2)}-[X1][Tle][Pro(4-oxo)]L[αMeP]-X6) ?
Response given: 15

Challenge: Quick check: IC50 of COC(=O)/C=C/CC[C@H](NC(=O)c1nccnc1C(=O)O)C(=O)N[C@H](C(=O)N1CC(=O)C[C@H]1C(=O)N[C@H](C(=O)N[C@H](C(N)=O)C1CCCCC1)C1CCCCC1)C(C)(C)C [Compound 3] (X7-[X1][Tle][Pro(4-oxo)][Chg][Chg]-NH2) ?
Response given: 20

Challenge: Quick check: IC50 of CCOC(=O)/C=C/CC[C@H](NC(=O)c1ccncc1C(=O)O)C(=O)N[C@H](C(=O)N1CC(=O)C[C@H]1C(=O)N[C@H](C(=O)N[C@H](C(N)=O)C1CCCCC1)C1CCCCC1)C(C)(C)C [8a/b] ({Isonicotinoyl(3-COOH)}-[Nle(5E-ene,6-CO2Et)][Tle][Pro(4-oxo)][Chg][Chg]-NH2) ?
Response given: 21

Challenge: Quick check: IC50 of COC(=O)/C=C/CC[C@H](NC(=O)c1cnc(O)c([N+](=O)[O-])c1)C(=O)N[C@H](C(=O)N1C[C@@H]2CCC[C@@H]2[C@H]1C(=O)N[C@H](C(=O)N[C@H](C(N)=O)C1CCCCC1)C1CCCCC1)C(C)(C)C [Compound 28] (X3-[X1][Tle][Pro(3S,4R-(CH2)3)][Chg][Chg]-NH2) ?
Response given: 36

====

biological target: TG2 (Homo sapiens (Human)); assay: Inhibitory activity against TG2 (isopeptidase assay), Tables 3 and 4; type: biochemical; conditions: isopeptidase assay, Table 3; read-out: IC50 [nM] TG2
Sequence (P21980 whole entry): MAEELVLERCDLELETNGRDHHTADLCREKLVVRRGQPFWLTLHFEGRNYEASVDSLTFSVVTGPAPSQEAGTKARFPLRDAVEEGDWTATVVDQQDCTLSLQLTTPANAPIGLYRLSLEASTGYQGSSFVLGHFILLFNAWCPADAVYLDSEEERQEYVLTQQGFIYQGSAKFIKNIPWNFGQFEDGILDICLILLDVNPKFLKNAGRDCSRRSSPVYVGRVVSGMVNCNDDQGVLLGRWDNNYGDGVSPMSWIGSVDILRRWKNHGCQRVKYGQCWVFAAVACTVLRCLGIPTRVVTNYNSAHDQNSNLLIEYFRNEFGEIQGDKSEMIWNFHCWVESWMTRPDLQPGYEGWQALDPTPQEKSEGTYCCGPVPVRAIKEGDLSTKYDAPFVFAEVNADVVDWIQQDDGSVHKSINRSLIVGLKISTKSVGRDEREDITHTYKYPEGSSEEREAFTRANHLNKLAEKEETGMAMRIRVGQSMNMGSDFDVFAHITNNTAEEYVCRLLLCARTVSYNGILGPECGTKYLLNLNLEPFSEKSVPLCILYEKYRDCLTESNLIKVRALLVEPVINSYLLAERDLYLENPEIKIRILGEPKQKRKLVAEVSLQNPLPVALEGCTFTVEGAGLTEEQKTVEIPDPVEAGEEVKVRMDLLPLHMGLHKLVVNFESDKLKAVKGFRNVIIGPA
*1 amine or outer side, *2 acyl side, *3 side chain or, on linkers, in order; H or OH if unused. Where a SMILES comes first, the peptide text is derived from it. [ ]: non-standard residue; d: D form. The star is where a group is joined. Pro(3S,4R-(CH2)3) = O=C(O)[C@H]1NC[C@@H]2CCC[C@@H]21; Isonicotinoyl(3-COOH) = O=C(O)c1cnccc1C(=O)*; X1 = COC(=O)/C=C/CC[C@H](N[*:1])C(=O)[*:2]; X3 = O=C(c1cnc(O)c([N+](=O)[O-])c1)*; Pro(4-oxo) = O=C1CN[C@H](C(=O)O)C1; Chg = N[C@H](C(=O)O)C1CCCCC1; Tle = CC(C)(C)[C@H](N)C(=O)O; X7 = O=C(O)c1nccnc1C(=O)*
Record form. Attribute: IC50. Fill in for each entry.
# number only, unit nM dropped from output

Challenge: Quick check: IC50 of COC(=O)/C=C/CC[C@H](NC(=O)c1cnc(O)c([N+](=O)[O-])c1)C(=O)N[C@H](C(=O)N1C[C@@H]2CCC[C@@H]2[C@H]1C(=O)N[C@H](C(=O)N[C@H](C(N)=O)C1CCCCC1)C1CCCCC1)C(C)(C)C [Compound 28] (X3-[X1][Tle][Pro(3S,4R-(CH2)3)][Chg][Chg]-NH2) ?
Response given: 41

Challenge: Quick check: IC50 of COC(=O)/C=C/CC[C@H](NC(=O)c1nccnc1C(=O)O)C(=O)N[C@H](C(=O)N1CC(=O)C[C@H]1C(=O)N[C@H](C(=O)N[C@H](C(N)=O)C1CCCCC1)C1CCCCC1)C(C)(C)C [Compound 3] (X7-[X1][Tle][Pro(4-oxo)][Chg][Chg]-NH2) ?
Response given: 16

Challenge: Quick check: IC50 of COC(=O)/C=C/CC[C@H](NC(=O)c1ccncc1C(=O)O)C(=O)N[C@@H](CCSC)C(=O)N1CC(=O)C[C@H]1C(=O)N[C@H](C(=O)N[C@H](C(N)=O)C1CCCCC1)C1CCCCC1 [37a/b] ({Isonicotinoyl(3-COOH)}-[X1]M[Pro(4-oxo)][Chg][Chg]-NH2) ?
Response given: 324

====

molecular target: FXIII (Homo sapiens (Human), UniProt P00488); assay: Inhibitory activity against FXIII (isopeptidase assay), Tables 3 and 4; assay type: biochemical; conditions: isopeptidase assay, Table 3; read-out: IC50 [nM] FXIII;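 also: FXIIIa activity read with a peptide substrate derived from the α2-antiplasmin N-terminal dodecapeptide, FXIII activated beforehand at room temperature, inhibitor-free wells with DMSO buffer as control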
*1 amine or outer side, *2 acyl side, *3 side chain or, on linkers, in order; H or OH if unused. Where a SMILES comes first, the peptide text is derived from it. [ ]: non-standard residue; d: D form. The star is where a group is joined. Benzoyl(3-COOH,5-NO2) = O=C(O)c1cc(C(=O)*)cc([N+](=O)[O-])c1; Isonicotinoyl(3-COOH) = O=C(O)c1cnccc1C(=O)*; X1 = COC(=O)/C=C/CC[C@H](N[*:1])C(=O)[*:2]; Pro(4-oxo) = O=C1CN[C@H](C(=O)O)C1; Chg = N[C@H](C(=O)O)C1CCCCC1; Tle = CC(C)(C)[C@H](N)C(=O)O
VALUE_TYPE: IC50 (nM)
# number only, unit nM dropped from output

Challenge: Short answer please: IC50, FXIII (Homo sapiens (Human), UniProt P00488), entry COC(=O)/C=C/CC[C@H](NC(=O)c1cc(C(=O)O)cc([N+](=O)[O-])c1)C(=O)N[C@H](C(=O)N1CC(=O)C[C@H]1C(=O)N[C@H](C(=O)N[C@H](C(N)=O)C1CCCCC1)C1CCCCC1)C(C)(C)C [Compound 4] ({Benzoyl(3-COOH,5-NO2)}-[X1][Tle][Pro(4-oxo)][Chg][Chg]-NH2)
Response given: 13

Challenge: Short answer please: IC50, FXIII (Homo sapiens (Human), UniProt P00488), entry CNC(=O)[C@@H](NC(=O)[C@@H](NC(=O)[C@@H]1CC(=O)CN1C(=O)[C@@H](NC(=O)[C@H](CC/C=C/C(=O)OC)NC(=O)c1ccncc1C(=O)O)C(C)(C)C)C1CCCCC1)C1CCCCC1 [36a/b] ({Isonicotinoyl(3-COOH)}-[X1][Tle][Pro(4-oxo)][Chg][Chg]-NHMe)
Response given: 41

Challenge: Short answer please: IC50, FXIII (Homo sapiens (Human), UniProt P00488), entry COC(=O)/C=C/CC[C@H](NC(=O)c1ccncc1C(=O)O)C(=O)N[C@H](C(=O)N1CC(=O)C[C@H]1C(=O)N[C@H](C(=O)N[C@H](C(=O)OC)C1CCCCC1)C1CCCCC1)C(C)(C)C [35a/b] ({Isonicotinoyl(3-COOH)}-[X1][Tle][Pro(4-oxo)][Chg][Chg]-OMe)
Response given: 86
